PROTOCOL_NOTES: modulators of MEP2-GFP levels in yeast, confirmation, S. cerevisiae, flow cytometry GFP, cherry picks (AID 2272);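 note: ratio of well signal to plate DMSO mean so 100% equals DMSO level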
EXPERIMENTAL_SETUP: S. cerevisiae MEP2-GFP strain, 3 h, at 10 µM, hits give high values
MEASURED_METRIC: GFP response vs DMSO (%)
Give just the numeric value; % need not be written.

State the recorded GFP response vs DMSO for this entry: `Cc1cccc(C(=O)NNC(=S)NC(=O)c2ccccc2)c1` 109

Field request: GFP response vs DMSO | item: `Cc1cc(NCCCN2CCOCC2)n2nc(C)c(-c3ccccc3)c2n1` 99.3

Requested field: GFP response vs DMSO. Item: `Cc1ccc2[nH]c3c(=O)n(CC(=O)N4CCN(C)CC4)ncc3c2c1` 98.3

Endpoint output: GFP response vs DMSO of `CCCCc1nnc(NC(=O)c2nc3nccc(C)n3n2)s1` . Value? 106

Which GFP response vs DMSO reading was recorded for the compound COC(=O)Nc1ccc2c(c1)N(C(=O)CCN1CCN3CCCC3C1)c1ccccc1CC2 (stereo unspecified) ? 104

Look up GFP response vs DMSO: `CCOC(=O)CSC1=NC(=O)/C(=C\c2ccc(Cl)cc2)S1` 103

###

PROTOCOL_NOTES: yeast V-ATPase proton transport modulators, S. cerevisiae, pHLuorin, HTS validation (AID 504600);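 note: plate controls were DMSO for no effect and reference compound for full effect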
EXPERIMENTAL_SETUP: S. cerevisiae pHLuorin cytosolic pH, at 10 µM, hits give high values
MEASURED_METRIC: response (%)
Express the result in % but write the number alone.

Please report the recorded response for `O=C(NCc1ccccc1Cl)NC(=O)c1ccccc1` . -5.42

Entry under review: `Nc1nc2ccc(OC(F)(F)F)cc2s1` . Reported response? 1.08

Consider the compound shown here: CC(C)Cc1ccc(C(C)C(=O)Nc2ccc(O)cc2)cc1 (configuration not stated) What is its recorded response? -13.1

Could you tell me which response is on file for `CC(C)c1ccccc1OCCNC(=S)NC(=O)c1cccnc1` ? -2.54

Please report the recorded response for `c1cc2c(cc1C1CCCCC1)c1c3n2CCN=C3CCC1` . -0.63

Need response of `COc1ccc(/C=N\NC(=O)CCc2c(C)n[nH]c2C)c(OC)c1OC` , thanks. -0.97

Name the reported response value associated with the compound COc1ccc(NC(=O)C2CSC3c4ccccc4C(=O)N23)cc1 (configuration not stated) 4.39

###

PROTOCOL_NOTES: modulators of LAP4-GFP expression in yeast, primary screen, S. cerevisiae, multiplex flow cytometry (AID 1873)
EXPERIMENTAL_SETUP: 3 h, at 10 µM, hits give high values
Inconclusive results are not listed.
Provide the recorded GFP response vs DMSO for the entries that follow.
The reply should be a number in %, with the unit left off.

Looking for the measured GFP response vs DMSO of `COc1ccc(CN(C)CCc2ccccn2)cc1OC` , can you help? 74.3

Give its GFP response vs DMSO value. Item: Cn1cc(CN2CCCC(CO)(Cc3cccc(Cl)c3)C2)cn1 (centres undefined) 97.2

Item under review: `COC(=O)c1cc(OC)c(OC)c(OC)c1[N+](=O)[O-]` . Reported GFP response vs DMSO? 108

Bench note: what GFP response vs DMSO did `CCOc1ccc(C(=O)/C=C/c2cc(OC)c(OC)c(OC)c2)cc1` show? 105

###

PROTOCOL_NOTES: AGP1-GFP expression modulators, hit retest, confirmation, cell-based, flow cytometry, S. cerevisiae, cherry picks (AID 2273);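 note: median GFP channel fluorescence over the whole cell population gate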
EXPERIMENTAL_SETUP: S. cerevisiae AGP1-GFP strain, 3 h, at 10 µM
MEASURED_METRIC: GFP response, % of DMSO (%)
Numbers only; they are read as %.

Entry `CCCc1ccc(C(=O)N2CCN(c3ccccc3OCC)CC2)cc1` has what GFP response, % of DMSO? 96.9

What value of measured GFP response, % of DMSO is listed for `CN1C(=O)/C(=N\OC(=O)c2cccc3ccccc23)c2ccccc21` ? 88.4

Look up GFP response, % of DMSO: `O=c1/c(=C/c2cccc3ccccc23)sc2ncnn12` 91.2

Sample `CCc1ccc(C(=O)COC(=O)c2n[nH]c3ccccc23)cc1` — what was its GFP response, % of DMSO? 101

Would you kindly share the measured GFP response, % of DMSO for `Cc1cc(O)c(C(=O)/C=C/c2ccccc2O)c(=O)o1` ? 90.2

Looking for the measured GFP response, % of DMSO of `Cc1ccc(C(=O)c2c3ccccc3[n+]([O-])n2CCO)cc1` , can you help? 97.6

Param item = `CCCc1nnc(NC(=O)c2nc(S(=O)(=O)Cc3ccc(C)cc3)ncc2Cl)s1` ; retrieve measured GFP response, % of DMSO. 103

What measured GFP response, % of DMSO goes with `O=C(O)c1cccc(S(=O)(=O)N2Cc3ccccc3C2)c1` ? 104

# get_value(readout='GFP response, % of DMSO', item= `Cc1cccc(NC(=O)c2nc(S(=O)(=O)Cc3ccccc3)ncc2Cl)c1` ) 116

# query: GFP response, % of DMSO of entry `Cc1cc(NCCCN2CCOCC2)n2ncc(-c3ccccc3)c2n1` 102

Data request, read-out GFP response, % of DMSO, for `Oc1ccc2ccccc2c1N=Nc1nccs1` 89.3

Endpoint output: GFP response, % of DMSO of `Cc1ccc(NC(=S)c2nc3ccccc3[nH]2)cc1` . Value? 88.3

Given the compound `COC(=O)c1ccccc1Sc1ncnc2onc(C)c12` , what is its reported GFP response, % of DMSO? 93.2

Form field: reported GFP response, % of DMSO of CC(=O)SC(C[N+](=O)[O-])c1cn(C(C)=O)c2ccccc12 (centres undefined) 98

Give the measured GFP response, % of DMSO of `O=C(N/N=C/c1ccc(OCCCF)cc1)c1cc(OCC(F)(F)F)ccc1OCC(F)(F)F` . 97.2

GFP response, % of DMSO lookup needed for `Cc1ccc(CS(=O)(=O)c2ncc(Cl)c(C(=O)Nc3nnc(C)s3)n2)cc1` , thanks. 113

# lookup: GFP response, % of DMSO of `COc1ccccc1NC1=C(Cl)C(=O)N(c2ccccc2)C1=O` 97

GET /values?readout=GFP response, % of DMSO&item= `CCCn1c(=O)c(C(=O)Nc2ccccc2C(=O)OC)c(O)c2ccccc21` 103

Please report the recorded GFP response, % of DMSO for `Cc1ccccc1NC(=O)c1ccccc1` . 96.4

What value of GFP response, % of DMSO has been reported for the following compound? `Cc1ccccc1N1C(=O)c2sc3nc4c(c(=O)n3c2C1=O)CCC4` 102

For the compound shown here, `CCN(CC)c1ccc2cc(-c3nc4ccccc4[nH]3)c(=O)oc2c1` , give the reported GFP response, % of DMSO. 108

Query (compound): O=C(c1ccc(OCC2CCCO2)cc1)N1CCN(c2ccccc2)CC1 (centres undefined) ; field requested: GFP response, % of DMSO 102

Entry under review: `COc1ccc(S(=O)(=O)NCC(=O)N(CC(=O)NCc2ccco2)Cc2ccc(F)cc2)cc1` . Reported GFP response, % of DMSO? 103

Reported GFP response, % of DMSO, compound `Cc1c(NC(=O)Nc2ccc3c(c2)OCO3)c(=O)n(-c2ccccc2)n1C` : ____ 96.7

###

PROTOCOL_NOTES: modulators of CIT2-GFP expression in yeast, primary screen, S. cerevisiae, GFP fusion, multiplex flow cytometry (AID 1870);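 note: barcoded CIT2-GFP strain pooled with four other GFP strains with rapamycin as positive control; median GFP fluorescence per well over plate mean of DMSO wells so 100% = DMSO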
EXPERIMENTAL_SETUP: 3 h, at 10 µM, hits give high values
MEASURED_METRIC: percent response of DMSO control (%)
Response body: numeric value in %, unit text excluded.

Entry CC(C)OC(=O)CC1C(=O)NCCN1C(=S)NC(=O)c1cccs1 (stereo unspecified) has what percent response of DMSO control? 107

GET /values?readout=percent response of DMSO control&item= `C/C=C/Cn1c(SC)nc2c1c(=O)[nH]c(=O)n2C` 95.9

Fill in: percent response of DMSO control of CC1=CC2(O)OCCN(CCO)C2=CC1=O (stereo unspecified) is ___ 101

Looking for the measured percent response of DMSO control of `Nc1ccc(N)c(C(=O)O)c1` , can you help? 110

# input molecule: CC12CCC(C(=O)N3CCCCC3)([C@H](Br)C1=O)C2(C)C (stereo partly specified) ; wanted: its percent response of DMSO control 101

Look up percent response of DMSO control: CC(C(=O)O)c1ccc(N2Cc3ccccc3C2=O)cc1 (stereo unspecified) 93.9

###

Field: GFP response relative to DMSO. Provide a value for each of the molecules that follow.
PROTOCOL_NOTES: LAP4-GFP expression modulators in yeast, confirmation, cell-based, cherry picks, flow cytometry, mother/daughter gates (AID 2271);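 note: ratio of sample to DMSO plate mean so 100% equals DMSO level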
EXPERIMENTAL_SETUP: S. cerevisiae LAP4-GFP strain, 3 h, at 10 µM, hits give high values, 100 means same as DMSO control
Active and inactive are the calls of the source.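 The calls were made as follows: active = GFP response above 150% of the DMSO control; inconclusive = fewer than 70 events counted in any yeast strain; inactive = the rest.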

If you can, please state the reported GFP response relative to DMSO value of O=C1Nc2ccc(Br)cc2/C1=C/C1CC=CCC1 (configuration not stated) . 131% (inactive)

Name the recorded GFP response relative to DMSO for `O=C(/C=C/c1ccc(F)cc1)NC(=S)NNC(=O)c1cnccn1` . 313% (active)

For the molecule `Cc1ccc(Oc2nc(-c3ccccn3)nc3ccccc23)cc1` , what GFP response relative to DMSO is on record? 110% (inactive)

Fill blank: measured GFP response relative to DMSO of the molecule `Cc1ccc(NC(=S)N/N=C/c2c(C)[nH]c3ccccc23)cc1` is ____. 101% (inactive)

If you can, please state the reported GFP response relative to DMSO value of `C/C(CC(=O)Nc1cc(C)ccn1)=N\NC(=O)c1cccc(F)c1` . 97.4% (inactive)

Which measured GFP response relative to DMSO value corresponds to `Cn1c(=O)c2ccccc2n(Cc2cccc(F)c2)c1=O` ? 104% (inactive)

Entry `COc1cc(NC(=O)c2ccccc2[N+](=O)[O-])ccc1NC(=O)c1cc2ccccc2o1` has what GFP response relative to DMSO? 97% (inactive)
